tgt: D(3) dopamine receptor (Homo sapiens) (UniProt P35462)
Sequence (P35462 whole entry, looked up): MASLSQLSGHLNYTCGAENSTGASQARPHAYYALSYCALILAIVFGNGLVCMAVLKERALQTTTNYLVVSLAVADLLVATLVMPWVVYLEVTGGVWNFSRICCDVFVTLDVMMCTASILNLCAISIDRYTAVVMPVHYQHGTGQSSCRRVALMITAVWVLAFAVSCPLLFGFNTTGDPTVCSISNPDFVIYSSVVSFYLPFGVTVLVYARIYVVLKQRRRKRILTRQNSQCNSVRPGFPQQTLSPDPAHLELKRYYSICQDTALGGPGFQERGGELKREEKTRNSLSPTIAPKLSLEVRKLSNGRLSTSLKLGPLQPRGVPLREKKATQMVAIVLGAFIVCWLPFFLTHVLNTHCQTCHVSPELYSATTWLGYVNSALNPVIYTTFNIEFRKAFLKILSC
measurement-notes: qHTS of D3 Dopamine Receptor Agonist: qHTS; also: 0% is about no effect
experimental-conditions: D3R DiscoveRx beta-arrestin cells, luminescence, 90 min
The campaign covered roughly 410,000 compounds. About 2,400 (0.59%) were called active. Rule as the data show it: active = max activation above about 30%; inactive = the rest. What follows is part of a selection rich in actives, with near analogues and random picks from the rest. Where a SMILES comes first, the peptide text is derived from it. Bridges are numbered along the chain shown (N, C = ends). [ ]: non-standard residue; d: D form. The star is where a group is joined. X1 = CC[C@H](C)CCCCC(=O)*; Dab = NCC[C@H](N)C(=O)O
Bench note: report the call from Y for active, N for inactive

# compound, label-class
rows = [
    ("Cc1oc2ncnc(N3CCCCC3)c2c1C(=O)N1CCN(c2cccc(Cl)c2)CC1", "N"),
    ("CCN(C(=O)c1sc2cc(OC)ccc2c1Cl)c1ccccc1", "N"),
]

query: What was the test verdict on CC[C@H](C)CCCCC(=O)N[C@@H](CCN)C(=O)N[C@H](C(=O)N[C@@H](CCN)C(=O)N[C@H]1CCNC(=O)[C@@H]([C@H](C)O)NC(=O)[C@H](CCN)NC(=O)[C@H](CCN)NC(=O)[C@H](CC(C)C)NC(=O)[C@@H](CC(C)C)NC(=O)[C@H](CCN)NC1=O)[C@@H](C)O (X1-[Dab]T[Dab][Dab][Dab][dL]L[Dab][Dab][dT]; lactam 4-C) ?
result: N

query: Recorded test call requested for C=CCOc1c2ccc(C(=O)N(CC)c3ccc(OC)cc3)cc2nn1C
result: Y

----------
Here, each record is paired with measured max activation data.
tgt: D(3) dopamine receptor (Homo sapiens)
measurement-notes: qHTS of D3 Dopamine Receptor Agonist: qHTS; also: 0% is about no effect
experimental-conditions: D3R DiscoveRx beta-arrestin cells, luminescence, 90 min; hits give high values
About 2,400 (0.59%) of roughly 410,000 compounds were called active. The full list was thinned out, with actives kept by preference.
Answer with a number only, understood to be in %.

Observe how each entry below is paired with its result.
# smiles, tgt, max activation, %
records = [
    ("CCC(=O)N1CCC(C(N)=O)(N2CCCCC2)CC1", "D(3) dopamine receptor (Homo sapiens)", 1.17),
    ("CO[C@H]1C=CO[C@@]2(C)Oc3c(C)c(O)c4c(O)c(c(/C=N/N5CCN(C)CC5)c(O)c4c3C2=O)NC(=O)/C(C)=C\\C=C[C@H](C)[C@H](O)[C@@H](C)[C@@H](O)[C@@H](C)[C@H](OC(C)=O)[C@@H]1C", "D(3) dopamine receptor (Homo sapiens)", -16.3),
    ("COc1cc(OC)c(C(=O)NNC(=O)c2ccc(NS(=O)(=O)c3cccs3)cc2)cc1OC", "D(3) dopamine receptor (Homo sapiens)", 2.22),
    ("O=CN1CCN(C(=O)c2ccc(Br)o2)CC1", "D(3) dopamine receptor (Homo sapiens)", -4.54),
    ("COc1cccc(OC)c1OCCN1CCN(C(=O)c2ccco2)CC1", "D(3) dopamine receptor (Homo sapiens)", 73.2),
    ("Cc1cc(Cl)ccc1NC(=S)N1CCC(C(N)=O)(N2CCCCC2)CC1", "D(3) dopamine receptor (Homo sapiens)", 5),
    ("NC(=O)C1(N2CCCCC2)CCN(C(=S)Nc2ccc(Cl)cc2)CC1", "D(3) dopamine receptor (Homo sapiens)", 32.5),
    ("Cc1nn2c(=O)cc(COC(=O)CNC(=O)c3ccc(F)cc3)nc2s1", "D(3) dopamine receptor (Homo sapiens)", -2.47),
]

Please find the next compound below.
query: Provide measured max activation on D(3) dopamine receptor (Homo sapiens) for COc1cc2ccccc2cc1C(=O)Nc1cccc(-c2nc3ccccc3o2)c1 please.
result: 9.76
